Where do the numbers come from? From PubChem BioAssay (NCI).

System: SNB-75 CNS
Assay: NCI tumour cell line growth inhibition, 48 h
property.measured: log10(TGI) (log10 of the value in µM)

smiles.text: N#Cc1c(N)nc(NCc2ccccc2)c(C#N)c1-c1ccccc1Cl
log10(TGI): 1.69

smiles.text: N#C/C(=C1C=C/C(=N\O)C(Cl)=C\1)c1ccccc1
log10(TGI): 1.31

smiles.text: COc1ccccc1/C=C/c1c(N)ncnc1Nc1cccc(Cl)c1
log10(TGI): 1.37

smiles.text: COc1cccc(Cn2c(-c3nonc3NC(C)=O)nc3ccccc32)c1
log10(TGI): 0.59

smiles.text: O=C1C(c2c(O)[nH]c3ccccc23)=Nc2ccc(Br)cc21
log10(TGI): 1.54

smiles.text: CN=C(N)/N=C(\N)Nc1cc2ccccc2c2ccccc12
log10(TGI): 1.44

----------
Test system: CAKI-1 renal
Assay: NCI tumour cell line growth inhibition, 48 h
TGI by entry:
property.measured: TGI (µM)

molecule: CCC[CH2][Sn]1([CH2]CCC)[O]CC(CN2CCOCC2)[O]1 (stereo unspecified)
target: CAKI-1 renal
result.units: µM
operator.symbol: =
measured: 6.51
//
molecule: COc1ccc(-c2nc(N3CCOCC3)c3sc(CN(C)c4ncc(C(=O)NO)cn4)cc3n2)cn1
target: CAKI-1 renal
result.units: µM
operator.symbol: =
measured: 0.0436
//
molecule: CN(C)[C@H]1CC[C@H]2[C@@H]3CCC4C[C@@H](NC(=O)NC(Cc5ccccc5)c5nccs5)CC[C@]4(C)[C@H]3CC[C@]12C (stereo partly specified)
target: CAKI-1 renal
result.units: µM
operator.symbol: =
measured: 3.11
//
molecule: C[C@H](N[C@H]1CCC[C@]1(O)C#Cc1ccc2c(c1)OCO2)c1ccccc1
target: CAKI-1 renal
result.units: µM
operator.symbol: >
measured: 25
//
molecule: CO/N=C(\C(=O)Nc1cncs1)c1csc(N)n1
target: CAKI-1 renal
result.units: µM
operator.symbol: >
measured: 10
//
molecule: CN=C(N)/N=C(\N)Nc1cc2ccccc2c2ccccc12
target: CAKI-1 renal
result.units: µM
operator.symbol: =
measured: 31.2
//
molecule: C(=NCCCN1CCN(CCCN=Cc2cccc3ccccc23)CC1)c1cccc2ccccc12
target: CAKI-1 renal
result.units: µM
operator.symbol: >
measured: 100
//
molecule: CC1=NC(C(C)C)C(=O)O1 (stereo unspecified)
target: CAKI-1 renal
result.units: µM
operator.symbol: >
measured: 100
//
molecule: C=C1CC2CC(=O)C(O)C(C1)C2 (stereo unspecified)
target: CAKI-1 renal
result.units: µM
operator.symbol: >
measured: 100
//
molecule: CN(C)CCNC1=CC(=O)c2nc3ccccc3c3ccnc1c23
target: CAKI-1 renal
result.units: µM
operator.symbol: =
measured: 18.9
//
molecule: CCCc1nc(NC#N)nc(C(=O)NC23CC4CC(CC(C4)C2)C3)c1C
target: CAKI-1 renal
result.units: µM
operator.symbol: >
measured: 100

----------
GI50 by entry:
Test system: MOLT-4 leukemia
Assay: NCI tumour cell line growth inhibition, 48 h
property.measured: GI50

molecule: COc1cc(-n2cnc(-c3ccc(Cl)cc3)c2)cc(OC)c1OC
target: MOLT-4 leukemia
measured: 19.2 µM

molecule: Cc1cc2cc3cc(C)c(N)cc3[n+](C)c2cc1N
target: MOLT-4 leukemia
measured: 2.58 µM

molecule: Cc1nn(-c2ccccc2)c2nc3c(nc12)C1=NCCN1C(c1ccc(Cl)cc1)N3 (centres undefined)
target: MOLT-4 leukemia
measured: 2.38 µM

molecule: O=C1/C(=C/c2ccccc2F)CN(C(=O)C(Cl)Cl)C/C1=C\c1ccccc1F
target: MOLT-4 leukemia
measured: 0.329 µM
